assay_system: Hypoxia inducible factors; HIF-1-alpha, HIF-2-alpha (Homo sapiens, UniProt Q16665+Q99814)
measurement_notes: Inhibition of hypoxia-induced HIF1 activation in human T47D cells expressing pGL3 construct after 16 hrs by cell-based luciferase reporter assay
readout_name: IC50 (µM)

1) CCCCCc1cc(=O)oc2c(CC=C(C)C)c(O)c(C(=O)CC(C)C)c(O)c12	4.19
2) CCCC[C@H](OC(C)=O)c1cc(=O)oc2c(C(=O)[C@@H](C)CC)c(OC(C)=O)c(CC=C(C)C)c(O)c12	5.11
3) CCCCCc1cc(=O)oc2c(CC=C(C)C)c(O)c(C(=O)[C@H](C)CC)c(O)c12	5.7
4) CCCc1cc(=O)oc2c(C(=O)[C@@H](C)CC)c(O)c(CC=C(C)C)c(O)c12	5.04

(A) CCCC[C@H](OC)c1cc(=O)oc2c(C(=O)[C@@H](C)CC)c(OC)c(CC=C(C)C)c(OC)c12
(B) CCCC[C@H](O)c1cc(=O)oc2c(C(=O)[C@@H](C)CC)c(O)c(CC=C(C)C)c(O)c12
(C) CC[C@H](C)C(=O)c1c(O)c(CC=C(C)C)c(O)c2c(-c3ccccc3)cc(=O)oc12
(D) CC[C@H](C)C(=O)c1c(O)c(CC=C(C)C)c2oc(=O)cc(-c3ccccc3)c2c1O
Sequence the entries by IC50, beginning with the highest number. Note for the reader: the ranking is given by listing the labels in the order requested.
A, C, D, B
(A: 13.2 µM, C: 6.76 µM, D: 4.63 µM, B: 2.23 µM)

---

assay_system: Hypoxia inducible factors; HIF-1-alpha, HIF-2-alpha (Homo sapiens, UniProt Q16665+Q99814)
measurement_notes: Inhibition of hypoxia-induced HIF1 activation in human T47D cells expressing pGL3 construct after 16 hrs by cell-based luciferase reporter assay
readout_name: IC50 (µM)

1) CCCc1cc(=O)oc2c(C(=O)CC(C)C)c(O)c(CC=C(C)C)c(O)c12	2.2
2) CC(C)=CCc1c(O)c(C(=O)CC(C)C)c2oc(=O)cc(-c3ccccc3)c2c1O [ISOMAMMEISIN]	3.23
3) CCCC[C@H](O)c1cc(=O)oc2c(C(=O)[C@@H](C)CC)c(OC)c(CC=C(C)C)c(OC)c12	6.31
4) CCCC[C@H](OC(C)=O)c1cc(=O)oc2c(C(=O)[C@@H](C)CC)c(OC(C)=O)c(CC=C(C)C)c(OC(C)=O)c12	0.83
5) CC(C)=CCc1c(O)c(C(=O)CC(C)C)c(O)c2c(-c3ccccc3)cc(=O)oc12 [MAMMEISIN]	4.44
6) CCCC[C@H](OC)c1cc(=O)oc2c(CC(=O)[C@@H](C)CC)c(OC)c(CC=C(C)C)c(OC)c12	5.91

(A) CCCCCc1cc(=O)oc2c(C(=O)CC(C)C)c(O)c(CC=C(C)C)c(O)c12
(B) CCCC[C@H](O)c1cc(=O)oc2c(C(=O)CC(C)C)c(O)c(CC=C(C)C)c(O)c12
// compare: A vs B , metric IC50, want the smaller Give the chosen item's label as your response.
B

(I) CCCC[C@H](OC(C)=O)c1cc(=O)oc2c(C(=O)[C@@H](C)CC)c(O)c(CC=C(C)C)c(OC(C)=O)c12
(II) CCCc1cc(=O)oc2c(CC=C(C)C)c(O)c(C(=O)[C@H](C)CC)c(O)c12
(III) CCCCCc1cc(=O)oc2c(C(=O)[C@@H](C)CC)c(O)c(CC=C(C)C)c(O)c12
Ordering: ascending IC50. State the ranking by listing the labels in the requested order.
I, III, II

---

assay_system: Hypoxia inducible factors; HIF-1-alpha, HIF-2-alpha (Homo sapiens, UniProt Q16665+Q99814)
measurement_notes: Inhibition of 1,10-phenanthrolin-induced HIF1 activation in human T47D cells expressing pGL3 construct after 16 hrs by cell-based luciferase reporter assay
readout_name: IC50 (µM)

Use these answered entries as a reference point.
1. CCCc1cc(=O)oc2c(CC=C(C)C)c(O)c(C(=O)[C@H](C)CC)c(O)c12	8.21
2. CCCC[C@H](O)c1cc(=O)oc2c(C(=O)CC(C)C)c(O)c(CC=C(C)C)c(O)c12	1.81
3. CCCc1cc(=O)oc2c(C(=O)[C@@H](C)CC)c(O)c(CC=C(C)C)c(O)c12	3.25
4. CCCC[C@H](O)c1cc(=O)oc2c(C(=O)[C@@H](C)CC)c(O)c(CC=C(C)C)c(O)c12	2.3
5. CCCCCc1cc(=O)oc2c(C(=O)[C@@H](C)CC)c(O)c(CC=C(C)C)c(O)c12	3.4

(I) CCCCCc1cc(=O)oc2c(CC=C(C)C)c(O)c(C(=O)CC(C)C)c(O)c12
(II) CCCC[C@H](OC(C)=O)c1cc(=O)oc2c(C(=O)[C@@H](C)CC)c(OC(C)=O)c(CC=C(C)C)c(OC(C)=O)c12
(III) CCCC[C@H](OC)c1cc(=O)oc2c(C(=O)[C@@H](C)CC)c(OC)c(CC=C(C)C)c(OC)c12
(IV) CCCC[C@H](OC(C)=O)c1cc(=O)oc2c(C(=O)[C@@H](C)CC)c(O)c(CC=C(C)C)c(OC(C)=O)c12
(V) CC[C@H](C)C(=O)c1c(O)c(CC=C(C)C)c(O)c2c(-c3ccccc3)cc(=O)oc12
// sort entries: IC50, high to low When ranking, write the labels in the order the request describes.
III, V, I, IV, II
